targetOrTestSystem: T1, interleukin-23 receptor (IL-23R), Q5VWK5
T1 chain: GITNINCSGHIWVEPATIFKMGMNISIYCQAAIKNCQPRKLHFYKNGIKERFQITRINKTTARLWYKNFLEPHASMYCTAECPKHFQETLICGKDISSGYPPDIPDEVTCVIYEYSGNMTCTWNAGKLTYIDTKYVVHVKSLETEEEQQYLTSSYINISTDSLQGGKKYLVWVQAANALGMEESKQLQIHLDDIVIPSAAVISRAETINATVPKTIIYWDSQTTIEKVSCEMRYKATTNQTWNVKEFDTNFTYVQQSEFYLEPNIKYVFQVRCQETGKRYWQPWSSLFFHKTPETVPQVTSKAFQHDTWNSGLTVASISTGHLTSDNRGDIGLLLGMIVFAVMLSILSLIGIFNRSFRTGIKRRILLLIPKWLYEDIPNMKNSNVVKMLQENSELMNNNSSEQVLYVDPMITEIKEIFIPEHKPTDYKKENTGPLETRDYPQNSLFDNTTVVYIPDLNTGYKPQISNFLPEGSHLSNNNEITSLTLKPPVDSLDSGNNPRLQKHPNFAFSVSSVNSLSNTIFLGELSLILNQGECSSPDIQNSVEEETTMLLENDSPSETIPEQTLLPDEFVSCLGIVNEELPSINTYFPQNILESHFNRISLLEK
protocolDetails: cell-based or functional assay
Starred links: 1 amine or outer side, 2 acyl side, 3 side chain; linkers in the order of their positions; H or OH if unused. Positions of bridges follow the written chain, without caps; N, C: chain ends. Non-standard residues stand in square brackets, D forms with d. No end group written: not given here. N,N‑dimethylasparagine = N,N-dimethylasparagine, CN(C)C(=O)C[C@H](N[*:1])C(=O)[*:2]; 2Nal(6-OH) = N[C@@H](Cc1ccc2cc(O)ccc2c1)C(=O)O; Trp(7-Me) = Cc1cccc2c(C[C@H](N)C(=O)O)c[nH]c12; d(hLys(Me3)) = C[N+](C)(C)CCCCC[C@@H](N)C(=O)O; AEF = NCCOc1ccc(C[C@H](N)C(=O)O)cc1; 3Pal = N[C@@H](Cc1cccnc1)C(=O)O; Pen = CC(C)(S)[C@H](N)C(=O)O; dDab = NCC[C@@H](N)C(=O)O; lipid = not defined here; Thp = NC1(C(=O)O)CCOCC1; Abu = CC[C@H](N)C(=O)O; Sar = CNCC(=O)O
property: PBMC pSTAT3 IC50

Would you please look over these solved cases?
INSERT INTO measurements (binder, testresult) VALUES
  ('[Pen]ET[Trp(7-Me)]K(Ac)[Pen][2‑amino‑3‑(4-(2-aminoethoxy)phenyl)propanoic acid][2‑amino‑3‑(6-hydroxynaphthalen-2-yl)propanoic acid][Thp]K(lipid)N[3Pal][Sar] (disulfide 1-6 (inferred); ends not checked; also: K10: lipidated lysine, lipid not given here) [SEQ ID NO: 215]', '< 0.1 nM'),
  ('[Pen]NT[Trp(7-Me)]K(Ac)[Pen][AEF][2Nal(6-OH)][Thp]KN[3Pal][Sar] (disulfide 1-6 (inferred); not fully specified (residue 10); ends not checked; also: K10: lipidated lysine, lipid not given here) [SEQ ID NO: 95]', '< 0.1 nM'),
  ('[dDab](Ac)[Abu]NTWQC[AEF][2Nal(6-OH)][Thp]CN[3Pal][Sar] (not fully specified (bridges); ends and bridges not checked) [SEQ ID NO: 413]', '< 0.1 nM'),
  ('[Pen]NT[Trp(7-Me)]K(Ac)[Pen][AEF][2Nal(6-OH)][Thp]KN[3Pal][Sar] (disulfide 1-6 (inferred); ends not checked; also: K10: lipidated lysine, lipid not given here) [SEQ ID NO: 128]', '< 1 nM');

The record that follows has no PBMC pSTAT3 IC50 shown yet.
Indicate its recorded PBMC pSTAT3 IC50; the binder in question is [d(hLys(Me3))][Pen][N,N‑dimethylasparagine]T[Trp(7-Me)]K(lipid)[Pen][AEF][2Nal(6-OH)][Thp]EN[3Pal][Sar] (disulfide 2-7 (inferred); ends not checked; also: Lys6 lipidated, lipid not given here) [SEQ ID NO: 239]
< 1 nM
